- target-desc: integrin αβ8 (αvβ8), form in the assay not stated (UniProt P06756 31-992)
- Sequence (chain, as listed by the source, chain 1 of 2): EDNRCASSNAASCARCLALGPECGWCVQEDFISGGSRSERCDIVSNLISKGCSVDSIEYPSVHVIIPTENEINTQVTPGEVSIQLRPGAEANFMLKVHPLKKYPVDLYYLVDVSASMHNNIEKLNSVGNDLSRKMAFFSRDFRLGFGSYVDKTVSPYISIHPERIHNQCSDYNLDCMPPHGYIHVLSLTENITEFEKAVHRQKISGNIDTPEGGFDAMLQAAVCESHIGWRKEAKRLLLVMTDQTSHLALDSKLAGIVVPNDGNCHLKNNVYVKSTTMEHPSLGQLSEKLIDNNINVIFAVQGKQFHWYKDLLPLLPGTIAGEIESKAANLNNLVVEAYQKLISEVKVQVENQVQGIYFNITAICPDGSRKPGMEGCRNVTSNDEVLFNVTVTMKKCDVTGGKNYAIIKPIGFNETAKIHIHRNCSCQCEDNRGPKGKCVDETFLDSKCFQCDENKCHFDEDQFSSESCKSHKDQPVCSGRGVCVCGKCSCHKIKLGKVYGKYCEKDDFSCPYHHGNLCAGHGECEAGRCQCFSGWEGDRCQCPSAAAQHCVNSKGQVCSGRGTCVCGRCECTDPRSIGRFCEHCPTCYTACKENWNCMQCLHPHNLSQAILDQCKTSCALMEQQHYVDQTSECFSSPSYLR
- Sequence (P06756 31-992, chain 2 of 2): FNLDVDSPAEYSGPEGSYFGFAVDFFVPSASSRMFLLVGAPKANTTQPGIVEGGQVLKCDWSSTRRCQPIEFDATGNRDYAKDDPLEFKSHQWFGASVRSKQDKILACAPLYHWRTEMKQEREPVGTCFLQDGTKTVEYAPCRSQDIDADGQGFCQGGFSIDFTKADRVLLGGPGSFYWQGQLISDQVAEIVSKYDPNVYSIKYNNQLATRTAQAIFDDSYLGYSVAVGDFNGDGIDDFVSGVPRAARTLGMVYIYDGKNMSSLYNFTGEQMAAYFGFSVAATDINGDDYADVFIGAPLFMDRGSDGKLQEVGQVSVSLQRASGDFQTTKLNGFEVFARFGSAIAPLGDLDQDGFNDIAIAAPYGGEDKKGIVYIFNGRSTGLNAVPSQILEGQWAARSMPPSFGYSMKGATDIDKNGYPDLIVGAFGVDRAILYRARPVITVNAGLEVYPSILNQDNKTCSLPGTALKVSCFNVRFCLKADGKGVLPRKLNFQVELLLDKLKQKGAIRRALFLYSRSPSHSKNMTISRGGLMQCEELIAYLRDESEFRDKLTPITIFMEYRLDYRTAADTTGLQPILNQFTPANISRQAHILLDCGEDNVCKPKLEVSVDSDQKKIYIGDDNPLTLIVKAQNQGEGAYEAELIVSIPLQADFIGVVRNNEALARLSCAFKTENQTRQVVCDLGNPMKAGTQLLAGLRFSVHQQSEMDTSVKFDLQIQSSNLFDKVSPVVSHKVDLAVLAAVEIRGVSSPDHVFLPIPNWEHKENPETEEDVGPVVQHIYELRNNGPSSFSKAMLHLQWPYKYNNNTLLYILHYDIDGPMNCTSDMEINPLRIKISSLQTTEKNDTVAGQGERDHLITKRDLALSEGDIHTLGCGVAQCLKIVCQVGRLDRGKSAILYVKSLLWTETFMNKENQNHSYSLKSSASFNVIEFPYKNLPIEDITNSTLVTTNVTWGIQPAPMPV
- method-notes: affinity determination of scFv; method and antigen form not stated
Measured pKd, listed per entry.
Would you please state pKd, meaning minus log10 of the concentration in mol/L, as a bare number?

Recall and state the measured pKd for 6B9 scFv (scFv, V domains shown) VH: QVQLQQSGAELVRPGTSVKVSCKASGYAFTDYLIEWVKQRPGQGLEWIGVINPETGGTNYNAKFKGKATLTADKSSSSAYMQLSSLTSGDSAVYFCAREAGNYIYAMDYWGQGTSVTVSS VL: DIQMTQSPASLSASVGETVTITCRASVNIYSYLVWYQQKQGKSPQLLVHNAKTLAEGVPSRFSGSGSGTQFSLKINSLQPEDFGSYYCQHHHGTPYTFGGGTKLEIK .
7.83

Recall and state the measured pKd for 14E5Mut65 scFv (scFv, V domains shown) VH: QVQLQQSGAELMKPGASVKISCKATGYSFSTNWIEWIKQRPGHGLEWIGHILPGSVITNYNEKFKGKAAITADTSSNTSYMQLSSLTSDDSAVYYCARWGWDSYWGQGTLVTVSS VL: DIKMTQSPSSLSASLGDRVTISCSASQGISNYLNWYQQKPDGTVKLLIYYTSSLHSGVPSRFSGSGSGTDYSLTISNLEPEDIATYYCQQFSNLPYTFGGGTKLEIK .
8.52
